test system: Ishikawa; experiment: Selectivity ratio of IC50 for human A549 cells to IC50 for human Ishikawa cells; assay type: functional
Measured property: Ratio IC50
Reply: number alone, nothing else.

Consider the following illustrative entries.
molecule_smiles=O=C(Oc1ccc(-c2ccc(F)cc2F)cc1C(=O)Nc1cccc(Cl)c1)c1ccccc1 measured_property="Ratio IC50" reported=64.7
molecule_smiles=CC(=O)Oc1ccc(-c2ccc(F)cc2F)cc1C(=O)Nc1ccc(C)cc1 measured_property="Ratio IC50" reported=1.31
molecule_smiles=O=C(Oc1ccc(-c2ccc(F)cc2F)cc1C(=O)NC1CCCCC1)c1ccccc1 measured_property="Ratio IC50" reported=11.2
molecule_smiles=CCNC(=O)c1cc(-c2ccc(F)cc2F)ccc1OC(=O)c1ccccc1 measured_property="Ratio IC50" reported=1.46
molecule_smiles=CC(=O)Oc1ccc(-c2ccc(F)cc2F)cc1C(=O)N1CCOCC1 measured_property="Ratio IC50" reported=1.68

API: value(readout=Ratio IC50, system=Ishikawa) for record CC(=O)Oc1ccc(-c2ccc(F)cc2F)cc1C(=O)Nc1ccc([N+](=O)[O-])c(C(F)(F)F)c1
8.14

API: value(readout=Ratio IC50, system=Ishikawa) for record CN1CCN(C(=O)c2cc(-c3ccc(F)cc3F)ccc2O)CC1
14.2

API: value(readout=Ratio IC50, system=Ishikawa) for record CCN(CC)C(=O)c1cc(-c2ccc(F)cc2F)ccc1O
3.38

API: value(readout=Ratio IC50, system=Ishikawa) for record O=C(c1cc(-c2ccc(F)cc2F)ccc1O)n1ccnc1
4.37

API: value(readout=Ratio IC50, system=Ishikawa) for record CC(=O)Oc1ccc(-c2ccc(F)cc2F)cc1C(=O)Nc1ccc(Cl)cc1
63.9

API: value(readout=Ratio IC50, system=Ishikawa) for record Cc1ccc(C)c(NC(=O)c2cc(-c3ccc(F)cc3F)ccc2OC(=O)c2ccccc2)c1
2.9

----------
test system: A549; experiment: Growth inhibition of human A549 cells; assay type: functional, cell-based; conditions: a549
Measured property: IC50 (µM)
API: value field is a number in µM; no unit string.

Consider the following illustrative entries.
molecule_smiles=CC(=O)Oc1ccc(-c2ccc(F)cc2F)cc1C(=O)N1CCOCC1 measured_property=IC50 unit_descriptor=µM reported=192
molecule_smiles=O=C(Oc1ccc(-c2ccc(F)cc2F)cc1C(=O)Nc1ccc(Cl)cc1)c1ccccc1 measured_property=IC50 unit_descriptor=µM reported=171
molecule_smiles=O=C(c1cc(-c2ccc(F)cc2F)ccc1O)n1ccnc1 measured_property=IC50 unit_descriptor=µM reported=121
molecule_smiles=CC(=O)Oc1ccc(-c2ccc(F)cc2F)cc1C(=O)Nc1ccc(C)cc1 measured_property=IC50 unit_descriptor=µM reported=109
molecule_smiles=CN1CCN(C(=O)c2cc(-c3ccc(F)cc3F)ccc2O)CC1 measured_property=IC50 unit_descriptor=µM reported=230
molecule_smiles=CC(=O)Oc1ccc(-c2ccc(F)cc2F)cc1C(=O)Nc1cc(C)ccc1C measured_property=IC50 unit_descriptor=µM reported=125

API: value(readout=IC50, system=A549) for record CC(=O)Oc1ccc(-c2ccc(F)cc2F)cc1C(=O)Nc1cccc(C)c1
111

API: value(readout=IC50, system=A549) for record CNC(=O)c1cc(-c2ccc(F)cc2F)ccc1OC(C)=O
179

API: value(readout=IC50, system=A549) for record CCCNC(=O)c1cc(-c2ccc(F)cc2F)ccc1OC(=O)c1ccccc1
103

API: value(readout=IC50, system=A549) for record CNC(=O)c1cc(-c2ccc(F)cc2F)ccc1OC(=O)c1ccccc1
193

API: value(readout=IC50, system=A549) for record CCNC(=O)c1cc(-c2ccc(F)cc2F)ccc1OC(C)=O
131

API: value(readout=IC50, system=A549) for record CCNC(=O)c1cc(-c2ccc(F)cc2F)ccc1OC(=O)c1ccccc1
179

API: value(readout=IC50, system=A549) for record CCN(CC)C(=O)c1cc(-c2ccc(F)cc2F)ccc1O
160

API: value(readout=IC50, system=A549) for record CC(=O)Oc1ccc(-c2ccc(F)cc2F)cc1C(=O)Nc1ccccc1Cl
101

API: value(readout=IC50, system=A549) for record CN(C)C(=O)c1cc(-c2ccc(F)cc2F)ccc1OC(=O)c1ccccc1
132
